Ref: PubChem BioAssay

# Tested on: F380Y
# Test Protocol: modulators of BK channel variants, profiling panel, selectivity assay, cell-based, U2OS BacMam, thallium flux, beta subunits (AID 1259406);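 also: initial slope of Thallos dye fluorescence rise after thallium is added; log ratio against the mean of 0.3% DMSO vehicle wells on the same plate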
# Measurement Conditions: at 30 µM
Response field label takes class 1 when log fold change Tl+ flux is strictly below -0.03 and class 0 in all other cases.

Exercise: Please determine if CCCCCc1c(C)nc(-c2ccccn2)[nH]c1=O is below -0.03 in terms of log fold change Tl+ flux.
Key: class 1

Exercise: Same lookup for CCC(=NOc1ccc(C(F)(F)F)cn1)c1ccc(-c2ccccc2F)cc1 , please.
Key: class 0

Exercise: Same lookup for Cc1nn(Cc2nnn(CC(=O)NN=Cc3ccc(Cl)cc3)n2)c(C)c1Br , please.
Key: class 0

Exercise: Same lookup for CC(N)(Cc1ccc(O)c(O)c1)C(=O)O (stereo unspecified) , please.
Key: class 0

Exercise: Same lookup for CNCC[C@H](Oc1cccc2ccccc12)c1cccs1 , please.
Key: class 1

Exercise: Same lookup for COc1ccccc1NC(=S)NNC(=O)CSc1ccccc1[N+](=O)[O-] , please.
Key: class 0

###

Kindly state cell count for each of the entries shown.
# Test Protocol: sensitizers of A549 cells to miR-34 induction, primary screen, imaging, A549 dox-inducible miR-34, nuclei and caspase counts (AID 1347080)
# Measurement Conditions: A549 miR-34 inducible, Hoechst nuclei count, 48 h; measured here: total cells with miR-34 induction; stronger effect = lower value
Answer with a number only.

Exercise: # lookup: cell count of Cn1nnnc1SCC1=C(C(=O)O)N2C(=O)C(NC(=O)C(O)c3ccccc3)C2SC1 (stereo not given)
Key: 11200

Exercise: Same lookup for Nc1ccc(S(=O)(=O)[O-])cc1.Nc1ccc(S(=O)(=O)[O-])cc1.[Zn+2] , please.
Key: 11500

Exercise: Same lookup for CCCC[C@@H](CC)COC(=O)C(C#N)=C(c1ccccc1)c1ccccc1 , please.
Key: 8030

Exercise: Same lookup for C[C@]12CCC3c4ccc(O)cc4CCC3C1C[C@@H](O)[C@@H]2O (stereo not given in full) , please.
Key: 11100

Exercise: Same lookup for OC[C@@H](O)C(O[C@@H]1O[C@H](CO)[C@H](O)[C@H](O)[C@H]1O)[C@H](O)[C@@H](O)CO (stereo not given in full) , please.
Key: 11300

###

# Test Protocol: suppressors of polyglutamine aggregation in yeast, 75Q-TubH (AID 1616)
# Measurement Conditions: S. cerevisiae 75Q-TubH polyglutamine aggregation suppression; stronger effect = higher value
Endpoint Label: aggregation suppression score
Answer with a number only.

Exercise: # lookup: aggregation suppression score of COC(=O)C(N)CS (stereo not given)
Key: 1.19

Exercise: Same lookup for CC(Cc1ccc(O)c(O)c1)(NN)C(=O)O (stereo not given) , please.
Key: 1.15

Exercise: Same lookup for C[C@@H]1CC2C3C[C@H](F)C4=CC(=O)C=C[C@]4(C)[C@@]3(F)[C@@H](O)C[C@]2(C)[C@@]1(O)C(=O)CO (stereo not given in full) , please.
Key: 0.927

Exercise: Same lookup for CO/N=C(/C(=O)NC1C(=O)N2C(C(=O)O)=C(COC(N)=O)CSC12)c1ccco1 (stereo not given) , please.
Key: 1.29

Exercise: Same lookup for CC1CCC2(OC1)OC1CC3C4CC[C@H]5C[C@@H](O)CC[C@]5(C)C4CC(=O)[C@]3(C)C1C2C (stereo not given in full) , please.
Key: 1.27

###

# Test Protocol: sensitizers of A549 cells to miR-34 induction, primary screen, imaging, A549 dox-inducible miR-34, nuclei and caspase counts (AID 1347080)
# Measurement Conditions: A549 miR-34 inducible, Hoechst nuclei count, 48 h; measured here: relative caspase fold change +Dox/-Dox
Numbered stars: 1 amine (or outer) side, 2 acyl side, 3 side chain; on linkers, the order of the positions; unused ones are H or OH. Bridge positions count the residues as written; N and C are the ends. Square brackets hold non-standard residues; d marks the D form. Peptide text beside a SMILES is read from it. I, II: the chains in the order shown. Actinocin(9to1) = Cc1c2oc3c(C)ccc(C(=O)[*:1])c3nc-2c(C(=O)[*:2])c(N)c1=O; NMeV = CN[CH](C(=O)O)C(C)C; Sar = CNCC(=O)O
Kindly state fold change for each of the entries shown.

Exercise: # lookup: fold change of CCOC(=O)CCC(=O)OC1C(OC2C(C)C(OC3CC(C)(OC)C(O)C(C)O3)C(C)C(=O)OC(CC)C(C)(O)C(O)C(C)C(=O)C(C)CC2(C)O)OC(C)CC1N(C)C (configuration not stated)
Key: 1.93

Exercise: Same lookup for CCOC(=O)OC(C)OC(=O)C1N2C(=O)C(NC(=O)[C@H](N)c3ccccc3)C2SC1(C)C (some centres not stated) , please.
Key: 2.54

Exercise: Same lookup for Cc1c2oc3c(C)ccc(C(=O)OC(C)C4NC(=O)C(C(C)C)N(C)C(=O)CN(C)C(=O)C5CCCN5C(=O)C(C(C)C)NC4=O)c3nc-2c(C(=O)OC(C)C2NC(=O)C(C(C)C)N(C)C(=O)CN(C)C(=O)C3CCCN3C(=O)C(C(C)C)NC2=O)c(N)c1=O (configuration not stated) (I: cyclo([Sar][NMeV]TVP) / II: cyclo([Sar][NMeV]TVP); linker I:3-II:3 via Actinocin(9to1); configuration not given here) , please.
Key: 1.67

Exercise: Same lookup for C/C=C\C1=C(C(=O)O)N2C(=O)C(NC(=O)C(N)c3ccc(O)cc3)C2SC1 (configuration not stated) , please.
Key: 4.02

Exercise: Same lookup for COc1cc([C@@H]2c3cc4c(cc3C(O[C@@H]3O[C@@H]5CO[C@@H](c6cccs6)OC5[C@H](O)[C@H]3O)C3COC(=O)[C@@H]32)OCO4)cc(OC)c1O (some centres not stated) , please.
Key: 3.39

Exercise: Same lookup for CN1C2CC(OC(=O)[C@H](CO)c3ccccc3)C[C@H]1[C@H]1OC21 (some centres not stated) , please.
Key: 3.37

Exercise: Same lookup for NC(N)=NCCCC(N)C(=O)O (configuration not stated) , please.
Key: 0.933

Exercise: Same lookup for CCCC(=O)O[C@]1(C(=O)CO)CCC2[C@@H]3CCC4=CC(=O)CC[C@]4(C)C3[C@@H](O)C[C@@]21C (some centres not stated) , please.
Key: 2.16

Exercise: Same lookup for O=C1O[C@H](C(O)CO)C(O)=C1O (some centres not stated) , please.
Key: 4.48

Exercise: Same lookup for CN[C@@H]1[C@@H](O[C@H]2O[C@H](CO)[C@@H](N)[C@H](O)[C@H]2O)O[C@H]2C[C@@H](N)[C@H](O[C@H]3[C@H](O)[C@@H](O)[C@H](N)C[C@@H]3N)O[C@@H]2[C@@H]1O , please.
Key: 5.22

Exercise: Same lookup for CC(=O)Nc1ccc(S(=O)(=O)c2ccc(NC(C)=O)cc2)cc1 , please.
Key: 4.36

Exercise: Same lookup for COc1ccc([C@@H]2CNC(=O)C2)cc1OC1CCCC1 , please.
Key: 0.878

Exercise: Same lookup for NC(=O)c1ncn(C2O[C@H](CO)[C@@H](O)[C@H]2O)c1N (some centres not stated) , please.
Key: 0.793

Exercise: Same lookup for C=C(C)C1CC=C(C)CC1 (configuration not stated) , please.
Key: 1.07

Exercise: Same lookup for CCN1CCN(C(=O)NC(C(=O)N[C@@H]2C(=O)N3[C@@H]2SC(C)(C)[C@@H]3C(=O)O)c2ccccc2)C(=O)C1=O (some centres not stated) , please.
Key: 1.11

Exercise: Same lookup for CCC(=O)OCC(=O)[C@@]1(OC(=O)CC)[C@H](C)CC2C3C([C@@H](O)C[C@@]21C)[C@@]1(C)C=CC(=O)C=C1C[C@H]3Cl (some centres not stated) , please.
Key: 0.881

Exercise: Same lookup for NCCCC(N)C(=O)O (configuration not stated) , please.
Key: 0.95

Exercise: Same lookup for CC1CC2C3CCC4=CC(=O)C=C[C@]4(C)[C@@]3(F)[C@@H](O)C[C@]2(C)[C@@]1(O)C(=O)CO (some centres not stated) , please.
Key: 1.79

Exercise: Same lookup for CC(C)OC(=O)CCC/C=C\C[C@@H]1[C@@H](CC[C@@H](O)CCc2ccccc2)[C@H](O)C[C@@H]1O , please.
Key: 1.07

Exercise: Same lookup for CC(C)[N+]1(C)C2CC[C@@H]1CC(OC(=O)C(CO)c1ccccc1)C2 (some centres not stated) , please.
Key: 1.18

Exercise: Same lookup for CCCCCN=C(N)NN=Cc1c[nH]c2ccc(OC)cc12 , please.
Key: 1.01

Exercise: Same lookup for CCC(=O)O[C@H](CC(=O)O)C[N+](C)(C)C , please.
Key: 0.77

Exercise: Same lookup for NC(=O)C1CCCN1C(=O)C(Cc1cnc[nH]1)NC(=O)C1CCC(=O)N1 (configuration not stated) , please.
Key: 0.922

Exercise: Same lookup for Cc1c2oc3c(C)ccc(C(=O)NC4C(=O)NC(C(C)C)C(=O)N5CCCC5C(=O)N(C)CC(=O)N(C)C(C(C)C)C(=O)OC4C)c3nc-2c(C(=O)NC2C(=O)NC(C(C)C)C(=O)N3CCCC3C(=O)N(C)CC(=O)N(C)C(C(C)C)C(=O)OC2C)c(N)c1=O (configuration not stated) (I: TVP[Sar][NMeV] / II: TVP[Sar][NMeV]; ester I:1-I:C, II:1-II:C; linker I:N-II:N via Actinocin(9to1); configuration not given here) , please.
Key: 1.2

Exercise: Same lookup for Cc1ccccc1C(=O)c1ccc(Nc2ccc(Br)cc2N)cc1Cl , please.
Key: 1.33

Exercise: Same lookup for CN1CCN2c3ncccc3Cc3ccccc3[C@@H]2C1 , please.
Key: 3.94

Exercise: Same lookup for C[N+](C)(C)CCOP(=O)([O-])OP(=O)(O)OC[C@H]1OC(n2ccc(N)nc2=O)[C@H](O)[C@@H]1O (some centres not stated) , please.
Key: 4.71

Exercise: Same lookup for Nc1ncnc2nc(-c3ccc(N4CCOCC4)nc3)cc(-c3cccc(Br)c3)c12 , please.
Key: 1.03

Exercise: Same lookup for O=c1ncccn1[C@@H]1O[C@H](CO)[C@@H](O)[C@H]1O , please.
Key: 1.17

Exercise: Same lookup for COC1CCC(C(=O)c2ccc3nc4c(cc3c2)CCCO4)CC1 (configuration not stated) , please.
Key: 1.27

Exercise: Same lookup for CCCN1CC(CSC)CC2c3cccc4[nH]cc(c34)CC21 (configuration not stated) , please.
Key: 1.17

Exercise: Same lookup for N#C[C@@H]1C[C@@H]2C[C@@H]2N1C(=O)[C@@H](N)C12CC3CC(CC(O)(C3)C1)C2 , please.
Key: 0.64
